The measured values listed here are drawn from patent US8389527B2.

Test system: HCT116
Assay: Cell proliferation inhibition assay (MTT, CellTiter96)
Assay type: cell-based
Conditions: Homo sapiens, HCT-116; HCT116 cells, 72 h with compound, MTT readout
Procedure: B. Cell Proliferation Inhibition Assay Compounds were evaluated for their ability to inhibit cell proliferation, using an assay that measures mitochondrial metabolic activity, that is directly correlated with cell numbers. […] Following the addition of compounds, the cells were cultured for an additional 72 h before cell viability was determined by measuring the conversion of 3-(4,5-dimethylthiazol-2-yl)-2,5-diphenyltetrazolium bromide (MTT) dye using the CellTiter96 kit (Promega).
Quantity Name: IC50 (nM)

Before answering, review these 5 worked examples.
>>> data_value("N[C@H]1CC[C@H](Nc2cc(Nc3ccccc3)c3ncc(C(=O)Nc4ccncn4)n3n2)CC1 [Example 518]")
170
>>> data_value("CC(C)CN[C@H]1CC[C@H](Nc2cc(NC3CC3)c3ncc(C(=O)Nc4ccnc(Cl)c4)n3n2)CC1 [Example 538]")
340
>>> data_value("N[C@H]1CC[C@H](Nc2cc(NC3CC3)c3ncc(C(=O)Nc4ccncc4F)n3n2)CC1 [Example 468]")
90
>>> data_value("O=C(Nc1ccnc(F)c1)c1cnc2c(NC3CC3)cc(N[C@H]3CC[C@H](O)CC3)nn12 [Example 13]")
170
>>> data_value("N[C@H]1CC[C@H](Nc2cc(NC3CCC3)c3ncc(C(=O)Nc4ccncc4F)n3n2)CC1 [Example 469]")
50

(I) Cc1cc(Nc2cc(N[C@H]3CC[C@H](N)CC3)nn3c(C(=O)Nc4ccnc(Cl)c4)cnc23)nn1C [Example 542]
(II) N#CCC(=O)N[C@H]1CC[C@H](Nc2cc(Nc3nccs3)c3ncc(C(=O)Nc4ccnc(Cl)c4)n3n2)CC1 [Example 562]
Ask | Between the two listed entries I and II , which has its IC50 at the higher number? Write the label of whichever entry you select.
Reply | I

###

System: HCT116
Assay: Cell proliferation inhibition assay (MTT, CellTiter96)
Type: cell-based
Conditions: Homo sapiens, HCT-116; HCT116 cells, 72 h with compound, MTT readout
Description: B. Cell Proliferation Inhibition Assay Compounds were evaluated for their ability to inhibit cell proliferation, using an assay that measures mitochondrial metabolic activity, that is directly correlated with cell numbers. […] Following the addition of compounds, the cells were cultured for an additional 72 h before cell viability was determined by measuring the conversion of 3-(4,5-dimethylthiazol-2-yl)-2,5-diphenyltetrazolium bromide (MTT) dye using the CellTiter96 kit (Promega).
Quantity Name: IC50 (nM)

>>> data_value("O=C(Nc1ccnc(Cl)c1)c1cnc2c(Nc3ccon3)cc(N[C@H]3CC[C@H](O)CC3)nn12 [Example 549]")
20

(a) O=C(Nc1ccnc(Cl)c1)c1cnc2c(NC3CC3)cc(NC3CCSCC3)nn12 [Example 571]
(b) O=C(Nc1ccnc(F)c1)c1cnc2c(NC3CC3)cc(N[C@H]3CC[C@H](N4CCOCC4)CC3)nn12 [Example 27]
Ask | Between the two listed entries a and b , which has its IC50 at the higher number? Write the label of whichever entry you select.
Reply | a

###

System: HCT116
Experiment: Cell proliferation inhibition assay (MTT, CellTiter96)
Format: cell-based
Settings: Homo sapiens, HCT-116; HCT116 cells, 72 h with compound, MTT readout
Procedure: B. Cell Proliferation Inhibition Assay Compounds were evaluated for their ability to inhibit cell proliferation, using an assay that measures mitochondrial metabolic activity, that is directly correlated with cell numbers. […] Following the addition of compounds, the cells were cultured for an additional 72 h before cell viability was determined by measuring the conversion of 3-(4,5-dimethylthiazol-2-yl)-2,5-diphenyltetrazolium bromide (MTT) dye using the CellTiter96 kit (Promega).
Quantity Name: IC50

Before answering, review these 2 worked examples.
>>> data_value("N[C@H]1CC[C@H](Nc2cc(Nc3ncccc3O)c3ncc(C(=O)Nc4ccncc4)n3n2)CC1 [Example 378]")
"> 1000 nM"
>>> data_value("CC(C)CC(=O)N[C@H]1CC[C@H](Nc2cc(NC3CC3)c3ncc(C(=O)Nc4ccnc(Cl)c4)n3n2)CC1 [Example 164]")
"> 2500 nM"

Ask | API: value(readout=IC50, system=HCT116) for record NCCN[C@H]1CC[C@H](Nc2cc(NC3CC3)c3ncc(C(=O)Nc4ccnc(F)c4)n3n2)CC1 [Example 526]
Reply | > 2500 nM

###

Tested on: HCT116
Test: Cell proliferation inhibition assay (MTT, CellTiter96)
Type: cell-based
Settings: Homo sapiens, HCT-116; HCT116 cells, 72 h with compound, MTT readout
Quantity Name: IC50 (nM)

>>> data_value("Cc1cc(Nc2cc(N[C@H]3CC[C@H](NC(=O)CC#N)CC3)nn3c(C(=O)Nc4ccnc(Cl)c4)cnc23)no1")
870
>>> data_value("O=C(Nc1ccncc1F)c1cnc2c(NC3CC3)cc(N[C@H]3CC[C@H](NC(=O)[C@H]4CCCN4)CC3)nn12")
200

(I) N[C@@H](CO)C(=O)N[C@H]1CC[C@H](Nc2cc(NC3CC3)c3ncc(C(=O)Nc4ccnc(Cl)c4)n3n2)CC1
(II) N[C@H]1CC[C@H](Nc2cc(Nc3ccc(CN4CCOCC4)cc3)c3ncc(C(=O)Nc4ccncc4)n3n2)CC1
Ask | Between the two listed entries I and II , which has its IC50 at the higher number? Write the label of whichever entry you select.
Reply | II
(II: 540 nM, I: 230 nM)

###

Tested on: HCT116
Assay: Cell proliferation inhibition assay (MTT, CellTiter96)
Type: cell-based
Settings: Homo sapiens, HCT-116; HCT116 cells, 72 h with compound, MTT readout
pIC50: −log10 of the molar value.
Quantity Name: pIC50

>>> data_value("CN(C)[C@H]1CCN(C(=O)N[C@H]2CC[C@H](Nc3cc(NC4CC4)c4ncc(C(=O)Nc5ccnc(Cl)c5)n4n3)CC2)C1")
6.40

(P) NCC(=O)N[C@H]1CC[C@H](Nc2cc(NC3CC3)c3ncc(C(=O)Nc4ccncc4F)n3n2)CC1
(Q) Cc1cc(Nc2cc(N[C@H]3CC[C@H](O)CC3)nn3c(C(=O)Nc4ccnc(Cl)c4)cnc23)nn1C
Ask | Kindly identify the item with the lower pIC50 figure among these two: P and Q Write the label of whichever entry you select.
Reply | P

###

Molecular target: recombinant CK2A2 (Homo sapiens, UniProt P19784)
Construct: purchased Upstate Biotechnology
Sequence (P19784 whole entry): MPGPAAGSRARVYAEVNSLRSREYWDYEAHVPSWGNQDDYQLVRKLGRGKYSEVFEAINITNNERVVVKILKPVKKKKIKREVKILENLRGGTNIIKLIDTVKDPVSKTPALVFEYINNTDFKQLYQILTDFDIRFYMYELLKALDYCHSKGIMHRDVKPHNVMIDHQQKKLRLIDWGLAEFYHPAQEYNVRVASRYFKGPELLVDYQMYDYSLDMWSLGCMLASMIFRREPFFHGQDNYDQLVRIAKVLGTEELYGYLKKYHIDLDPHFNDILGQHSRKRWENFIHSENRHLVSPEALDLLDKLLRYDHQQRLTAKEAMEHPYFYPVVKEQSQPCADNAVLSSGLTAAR
Experiment: CK2 kinase assay (CK2A2), [γ-33P]ATP filter-binding
Assay type: biochemical
Details: recombinant CK2A2 5 nM, ATP 5 μM, 10 μM peptide substrate, 30° C. 1 h
pIC50: −log10 of the molar value.
Quantity Name: pIC50

>>> data_value("CN(C)[C@H]1CCN(C(=O)N[C@H]2CC[C@H](Nc3cc(NC4CC4)c4ncc(C(=O)Nc5ccnc(Cl)c5)n4n3)CC2)C1 [Example 272]")
9.10

(1) N[C@@H](C(=O)N[C@H]1CC[C@H](Nc2cc(NC3CC3)c3ncc(C(=O)Nc4ccnc(Cl)c4)n3n2)CC1)c1ccccc1 [Example 172]
(2) N[C@H]1CC[C@H](Nc2cc(Nc3cccc(N4CCNCC4)n3)c3ncc(C(=O)Nc4ccncc4F)n3n2)CC1 [Example 481]
(3) O=C(Nc1ccnc(Cl)c1)c1cnc2c(NC3CC3)cc(NC3CC[S+]([O-])CC3)nn12 (stereo not shown) [Example 572]
Ask | hey, can you rank those compounds up there by pIC50? biggest number first please // rank by listing labels in the order requested
Reply | 1, 2, 3
(1: 9.05, 2: 7.47, 3: 7.14)
